System: RPMI-8226
Test: NCI tumour cell line growth inhibition, 48 h
Calls of active or inactive are those of the source. Rule as the data show it: active = GI50 up to about 1.1 µM and inactive = higher.
For each of the molecules below, state its GI50.

**Q:** For RPMI-8226, provide GI50 of `COc1ccc(/C=N/n2c(C)n[nH]c2=O)c(OC)c1` please.
**A:** > 100 µM (inactive)

**Q:** And what about the molecule `O=S(=O)([N-]c1nc2ccccc2nc1-[n+]1ccccc1)c1ccccc1` ?
**A:** 74 µM (inactive)

**Q:** And what about the molecule `O=C1NC(=S)NC(=O)C1C(c1ccccc1[N+](=O)[O-])C1C(=O)NC(=S)NC1=O.c1ccncc1` ?
**A:** > 100 µM (inactive)

**Q:** And what about the molecule C=C1COC(/C=C(\C)CC/C=C(\C)CCl)C1 (stereo not drawn) ?
**A:** > 100 µM (inactive)

**Q:** And what about the molecule `Cc1nc2ccc(S(=O)(=O)Nc3nccs3)cc2c(=O)n1NS(=O)(=O)c1nccs1` ?
**A:** > 100 µM (inactive)

**Q:** And what about the molecule COC(=O)C(C)Oc1ccc(O)cc1 (stereo not drawn) ?
**A:** > 100 µM (inactive)

**Q:** And what about the molecule `CC(C)C(=O)/C=C/c1ccc(Br)cc1` ?
**A:** 5.38 µM (inactive)

**Q:** And what about the molecule `CCOC(=O)CC[C@H](NC(=O)c1nc[nH]c1/N=N/N(C)C)C(=O)OCC` ?
**A:** > 100 µM (inactive)

**Q:** And what about the molecule `CCCc1cc(=O)oc2c3c(c4c(c12)OC(C)(C)CC4)O[C@@H](C)[C@H](C)[C@H]3O` ?
**A:** 4.35 µM (inactive)

**Q:** And what about the molecule `N#CCCCC[N+]12CN3CN(CN(C3)C1)C2` ?
**A:** 40.8 µM (inactive)

**Q:** And what about the molecule `COC(=O)/C(=C/c1ccc(OC)cc1)C(C(=O)O)=C(C)C` ?
**A:** > 100 µM (inactive)

**Q:** And what about the molecule `Cn1c(=O)c2c(nc3n2CC(=O)N3CCCCl)n(C)c1=O` ?
**A:** > 100 µM (inactive)

**Q:** And what about the molecule O=C1c2ccccc2C(=O)N1CC1(C(=O)O)NCCS1(=O)=O (stereo not drawn) ?
**A:** > 100 µM (inactive)

**Q:** And what about the molecule COC(=O)C(CC(=O)Nc1ccc(Cl)c(Cl)c1)C(=O)C(=O)NC1C2CC3CC(C2)CC1C3 (stereo not drawn) ?
**A:** > 100 µM (inactive)

**Q:** And what about the molecule `Nc1nc(Cl)cc(NCCCCCCCCCCNc2cc(Cl)nc(N)n2)n1` ?
**A:** 2.18 µM (inactive)

**Q:** And what about the molecule `Cc1cccc(C)c1NC(=S)NC=C1C(=O)c2ccccc2C1=O` ?
**A:** 3.07 µM (inactive)

**Q:** And what about the molecule `C[n+]1c(-c2ccc(/C=N/Nc3ccnc(N/N=C/c4ccc(-c5cn6ccccc6[n+]5C)cc4)n3)cc2)cn2ccccc21` ?
**A:** 23.5 µM (inactive)

**Q:** And what about the molecule N#Cc1nc(C2CCC(=O)O2)oc1N (stereo not drawn) ?
**A:** > 100 µM (inactive)

**Q:** And what about the molecule CC1=C(C)C2(C#N)C(=O)N3C(=NC(c4ccco4)NC3c3ccco3)C2(C#N)C(c2ccco2)N1 (stereo not drawn) ?
**A:** > 100 µM (inactive)

**Q:** And what about the molecule `COc1cc(C)cc(C(=O)/C=C/c2ccccc2)c1O` ?
**A:** 21.2 µM (inactive)

**Q:** And what about the molecule `O=[PH](O)c1ccccn1` ?
**A:** > 100 µM (inactive)

**Q:** And what about the molecule CC12CCC(C(Nc3cc(C(F)(F)F)cc(C(F)(F)F)c3)C1=O)C2(C)C (stereo not drawn) ?
**A:** > 100 µM (inactive)

**Q:** And what about the molecule COc1ccc(OC)c(N2CC(N)C2=O)c1 (stereo not drawn) ?
**A:** > 100 µM (inactive)
